target: human 4Ig-B7-H3 extracellular domain (human) (UniProt Q5ZPR3); assay: biolayer interferometry (Octet), antibody captured on the probe, extracellular domain in solution
Sequence (Q5ZPR3 29-466): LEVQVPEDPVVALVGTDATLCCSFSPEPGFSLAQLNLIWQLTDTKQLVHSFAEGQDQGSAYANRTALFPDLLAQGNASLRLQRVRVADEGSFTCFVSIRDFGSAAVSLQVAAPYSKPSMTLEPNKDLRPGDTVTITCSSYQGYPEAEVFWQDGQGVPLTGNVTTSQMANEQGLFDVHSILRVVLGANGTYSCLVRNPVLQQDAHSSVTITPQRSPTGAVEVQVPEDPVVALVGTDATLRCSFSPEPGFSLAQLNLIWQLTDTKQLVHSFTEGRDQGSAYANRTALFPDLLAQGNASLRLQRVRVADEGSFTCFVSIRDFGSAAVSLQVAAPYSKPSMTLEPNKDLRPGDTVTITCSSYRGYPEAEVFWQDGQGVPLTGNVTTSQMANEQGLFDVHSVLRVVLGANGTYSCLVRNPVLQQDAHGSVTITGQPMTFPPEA
# pKd listing for each entry below
Note on pKd: it is the negative log10 of concentration, concentration in mol/L.

Example entries begin here.
MIL33B-mIgG2a (murine MIL33B antibody) (antibody, from a related filing, V domains shown) VH: EVQLQQSGPELVKPGASVKMSCKASGYTFTSYVMHWVRQSPGQGLEGIGYINSYSDGTKYNEKFKGKATLTSDKSSSTAYMELSGLTSEDSAVYYCARWGGLGNGAMDYWGQGTSVTVSS VL: QIVLTQSPAIMSASPGEKVTMTCSVSSSVNYMHWYQQKSGTSPKRWIYDTSKLASGVPARFSASGSGTSYSLTISSMEAEDAATYYCQQWTSNPLTFGAGTKLELK
10.09
MIL33B-H3-hIgG1 (antibody, V domains shown) VH: QVQLVQSGAEVKKPGASVKVSCKASGYTFTSYVMHWVRQAPGQRLEWMGYINSYSDGTKYNEKFKGRVTITRDTSASTAYMELSSLRSEDTAVYYCARWGGLGNGAMDYWGQGTLVTVSS VL: EIVLTQSPATLSLSPGERATLSCSVSSSVNYMHWYQQKPGQAPRRLIYDTSKLASGIPARFSGSGSGTDYTLTISSLEPEDFAVYYCQQWTSNPLTFGQGTKLEIK
9.92
MIL33B-H1-hIgG1 (antibody, V domains shown) VH: QVQLVQSGAEVKKPGASVKVSCKASGYTFTSYVMHWVRQAPGQRLEWMGYINSYSDGTKYNEKFKGRVTITSDTSASTAYMELSSLRSEDTAVYYCARWGGLGNGAMDYWGQGTLVTVSS VL: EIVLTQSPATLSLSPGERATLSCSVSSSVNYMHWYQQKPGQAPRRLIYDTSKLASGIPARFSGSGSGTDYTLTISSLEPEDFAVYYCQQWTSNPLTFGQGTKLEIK
9.82

## Task Indicate its recorded pKd; the binder in question is MIL33B-H2-hIgG1 (antibody, V domains shown) VH: QVQLVQSGAEVKKPGASVKVSCKASGYTFTSYVMHWVRQAPGQRLEWMGYINSYSDGTKYNEKFKGRATITRDTSASTAYMELSSLRSEDTAVYYCARWGGLGNGAMDYWGQGTLVTVSS VL: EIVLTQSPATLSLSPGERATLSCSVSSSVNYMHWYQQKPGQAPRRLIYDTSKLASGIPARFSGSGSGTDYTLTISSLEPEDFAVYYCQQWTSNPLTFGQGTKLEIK
## Result 9.92

## Task Indicate its recorded pKd; the binder in question is MIL33B chimeric antibody (full-length IgG) (antibody, V domains shown) VH: EVQLQQSGPELVKPGASVKMSCKASGYTFTSYVMHWVRQSPGQGLEGIGYINSYSDGTKYNEKFKGKATLTSDKSSSTAYMELSGLTSEDSAVYYCARWGGLGNGAMDYWGQGTSVTVSS VL: QIVLTQSPAIMSASPGEKVTMTCSVSSSVNYMHWYQQKSGTSPKRWIYDTSKLASGVPARFSASGSGTSYSLTISSMEAEDAATYYCQQWTSNPLTFGAGTKLELKR
## Result 9.80
